system: Mus musculus; assay: Cognition enhancing activity in sc dosed mouse assessed as reversal of scopolamine-induced amnesia measured up to 24 hrs treated 20 mins before training session by passive-avoidance test; type: functional; details: read-out: MED
Below is a list of entries, each paired with its recorded minimal effective dose value.
Your answer is read as mg/kg, so omit the unit and give the number.

[[record]]
molecule = "CCC(=O)N1CCNCC1"
quantity_kind = "minimal effective dose"
value_reported = 0.1

[[record]]
molecule = "CCC(=O)N1CCN(C(=O)c2ccccc2)CC1"
quantity_kind = "minimal effective dose"
value_reported = 0.001


Ask: Short answer please: minimal effective dose, Mus musculus, entry CCC(=O)N1CCN(C(=O)c2ccccc2)C(C)C1 (stereo not drawn)
Reply: 0.1

Ask: Short answer please: minimal effective dose, Mus musculus, entry O=C1CCC2CN(S(=O)(=O)c3ccc(F)cc3)CCN12 (stereo not drawn)
Reply: 0.001

Ask: Short answer please: minimal effective dose, Mus musculus, entry `O=C(c1ccccc1)N1CCNCC1`
Reply: 0.1

Ask: Short answer please: minimal effective dose, Mus musculus, entry CCC(=O)N1CCN(C(=O)c2ccccc2)C(c2ccccc2)C1 (stereo not drawn)
Reply: 1
